Source: ChEMBL document CHEMBL1671792

Molecular target: UniProt:Q96RI1
Sequence (Q96RI1 whole entry, the tested form may be a part): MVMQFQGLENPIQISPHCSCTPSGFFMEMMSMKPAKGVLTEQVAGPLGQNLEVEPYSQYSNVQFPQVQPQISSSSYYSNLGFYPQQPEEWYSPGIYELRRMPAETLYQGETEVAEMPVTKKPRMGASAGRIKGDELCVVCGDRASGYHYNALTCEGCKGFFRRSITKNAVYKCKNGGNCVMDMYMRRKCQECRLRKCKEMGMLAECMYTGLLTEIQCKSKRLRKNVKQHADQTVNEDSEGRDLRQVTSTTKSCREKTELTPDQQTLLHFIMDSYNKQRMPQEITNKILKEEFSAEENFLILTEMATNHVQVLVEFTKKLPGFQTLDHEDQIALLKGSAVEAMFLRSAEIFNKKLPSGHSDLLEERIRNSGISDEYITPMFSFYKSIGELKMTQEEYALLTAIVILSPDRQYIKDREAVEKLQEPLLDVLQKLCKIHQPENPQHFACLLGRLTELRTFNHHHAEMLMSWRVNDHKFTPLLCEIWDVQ
Test: Agonist activity at human FXR LBD assessed as SRC1 peptide recruitment by FRET assay relative to GW 4064
Assay type: functional
recorded endpoint: Activity (%)
I only need the number, in %, no unit after it.

Sample answers from the record:
Cc1cc2cc(-c3ccc(OCc4c(-c5c(Cl)cccc5Cl)noc4C(C)C)cc3)ccc2nc1C(=O)O = 107
CC(C)c1onc(-c2c(Cl)cccc2Cl)c1COc1ccc(-c2ccc3nc(C(=O)O)ccc3c2)cc1 = 105
Cc1cc(C(=O)O)nc2ccc(-c3ccc(OCc4c(-c5c(Cl)cccc5Cl)noc4C(C)C)cc3)cc12 = 108
COc1cc(C(=O)O)nc2ccc(-c3ccc(OCc4c(-c5c(Cl)cccc5Cl)noc4C(C)C)cc3)cc12 = 113

Okay, next one:
Can you share its Activity? I mean this compound: "CC(C)Oc1cc(C(=O)O)nc2ccc(-c3ccc(OCc4c(-c5c(Cl)cccc5Cl)noc4C(C)C)cc3)cc12" 113
